Assay: Cmax in beagle dog at 1 mg/kg, po
Format: ADME, organism-based, Canis lupus familiaris
Set-up: dose 1 mg/kg, route oral
Conditions: in vivo
Assay Endpoint: Cmax (ng/mL)
Give bare numbers, in ng/mL.

# get_value(readout='Cmax', item= COCCCN1C[C@@H]2[C@@H](CNC(=O)c3nc(C(C)C)n4ccccc34)[C@@H]2C1 )
412

---

Task for the reader: assign each of the following molecules its reported log10 Cmax.
Test: Cmax in Wistar rat at 10 mg/kg, po and 5 mg/kg, iv
Assay type: ADME, organism-based
Conditions: in vivo
Heads up, the numbers here are log10 of Cmax in ng/mL units.

# count of solved cases: 6
CC(C)c1nc(C(=O)NC[C@@H]2[C@H]3CN(CC(C)(C)F)C[C@@H]23)c2ccccn12 0.91
CC(C)c1nc(C(=O)NCC2CCN(CC3CCOCC3)CC2)c2ccccn12 2.37
COCCCN1CCC(NC(=O)c2nc(C(C)C)n3ccccc23)CC1 2.93
CC(C)c1nc(C(=O)NC2CCN(C(C)C)CC2)c2ccccn12 2.22
CC(C)c1nc(C(=O)NC2CCN(CCF)CC2)c2ccccn12 2.00
CC(C)c1nc(C(=O)NC[C@@H]2[C@H]3CN(CC(C)(C)O)C[C@@H]23)c2ccccn12 2.44

For each entry beneath this line, provide reported log10 Cmax.
1. COC(=O)N1CCC(CN2C[C@@H]3[C@@H](CNC(=O)c4nc(C(C)C)n5ccccc45)[C@@H]3C2)CC1
2. COCCCN1C[C@@H]2[C@@H](CNC(=O)c3nc(C(C)C)n4ccccc34)[C@@H]2C1
3. CC(C)c1nc(C(=O)NC[C@@H]2[C@H]3CN(C(C)C)C[C@@H]23)c2ccccn12
4. CC(C)c1nc(C(=O)NC2CCN(CC3CC3)CC2)c2ccccn12

[2.18, 2.27, 1.90, 1.87]

---

Test: Apparent volume of distribution in Wistar rat at 1 mg/kg, iv
Format: ADME, organism-based
Conditions: in vivo, read-out: Vd(app)
Assay Endpoint: Vd (L/kg)
Give bare numbers, in L/kg.

Form field: reported Vd of COCCCN1C[C@@H]2[C@@H](CNC(=O)c3nc(C(C)C)n4ccccc34)[C@@H]2C1
3.7

---

Experiment: Cmax in Wistar rat at 3 mg/kg, po
Type: ADME, organism-based
Set-up: dose 3 mg/kg, route oral
Settings: in vivo
Assay Endpoint: Cmax (ng/mL)
Give bare numbers, in ng/mL.

Recorded Cmax for COCCCN1C[C@@H]2[C@@H](CNC(=O)c3nc(C(C)C)n4ccccc34)[C@@H]2C1 , please?
188

---

Assay: Volume of distribution at steady state in Wistar rat at 10 mg/kg, po and 5 mg/kg, iv by LC-MS analysis
Assay type: ADME, organism-based
Conditions: in vivo, read-out: Vdss
Please provide measured Vd for the entries that follow.
Give bare numbers, in L/kg.

Look over these answered cases.
CC(C)c1nc(C(=O)NC2CCN(CC3(O)CCOCC3)CC2)c2ccccn12 4.7
CC(C)c1nc(C(=O)NC[C@@H]2[C@H]3CN(CC4CCOCC4)C[C@@H]23)c2ccccn12 10.4
COCCCN1C[C@@H]2[C@@H](CNC(=O)c3nc(C(C)C)n4ccccc34)[C@@H]2C1 3.7

Form field: reported Vd of CC(C)c1nc(C(=O)NCC2CCN(CC3CCOCC3)CC2)c2ccccn12
4

---

Experiment: Ratio of drug level in brain to plasma in Wistar rat at 10 mg/kg, po and 5 mg/kg, iv
Type: ADME, organism-based
Conditions: read-out: BPR
Friendly reminder: Kp below 0.4 is Condition met, at or above is Condition not met.

Please review the entries below; each comes with its answer.
COC(=O)N1CCC(CN2C[C@@H]3[C@@H](CNC(=O)c4nc(C(C)C)n5ccccc45)[C@@H]3C2)CC1 Condition not met
COCCCN1CCC(CNC(=O)c2nc(C(C)C)n3ccccc23)CC1 Condition met
CC(C)c1nc(C(=O)NC[C@@H]2[C@H]3CN(CC4CCOCC4)C[C@@H]23)c2ccccn12 Condition not met
CC(C)c1nc(C(=O)NCC2CCN(CC3CCOCC3)CC2)c2ccccn12 Condition met
CC(C)c1nc(C(=O)NC2CCN(CC3(O)CCOCC3)CC2)c2ccccn12 Condition met
CC(C)c1nc(C(=O)NC[C@@H]2[C@H]3CN(CC(C)(C)F)C[C@@H]23)c2ccccn12 Condition met
CC(C)c1nc(C(=O)NC2CCN(CCF)CC2)c2ccccn12 Condition not met
CC(C)c1nc(C(=O)NC[C@@H]2[C@H]3CN(C(C)C)C[C@@H]23)c2ccccn12 Condition met
COCCCN1C[C@@H]2[C@@H](CNC(=O)c3nc(C(C)C)n4ccccc34)[C@@H]2C1 Condition met
CC(C)c1nc(C(=O)NC2CCN(C3CCOCC3)CC2)c2ccccn12 Condition met

Strictly below 0.4 in Kp? COCCCN1CCC(NC(=O)c2nc(C(C)C)n3ccccc23)CC1
Condition met

Below 0.4 on Kp? Entry CC(C)c1nc(C(=O)NC[C@@H]2[C@H]3CN(CC(C)(C)O)C[C@@H]23)c2ccccn12
Condition met

---

Test: Apparent volume of distribution in beagle dog at 1 mg/kg, iv administered as 5 mins infusion
Format: ADME, organism-based, Canis lupus familiaris
Details: in vivo, read-out: Vd(app)
Assay Endpoint: Vd (L/kg)
Answers are plain numbers, in L/kg.

Report Vd for COCCCN1C[C@@H]2[C@@H](CNC(=O)c3nc(C(C)C)n4ccccc34)[C@@H]2C1 please.
2.1

---

Assay: AUC (0 to t) in Wistar rat at 3 mg/kg, po
Assay type: ADME, organism-based
Details: in vivo
Assay Endpoint: AUC(0-t) (ng·h/mL)
Answers are plain numbers, in ng·h/mL.

So what does the record say about AUC(0-t) for COCCCN1C[C@@H]2[C@@H](CNC(=O)c3nc(C(C)C)n4ccccc34)[C@@H]2C1 ?
301

---

Assay: Volume of distribution at steady state in Wistar rat at 10 mg/kg, po and 5 mg/kg, iv by LC-MS analysis
Format: ADME, organism-based
Conditions: in vivo, read-out: Vdss
I'd be grateful if you could share measured Vd for these entries.
Your reply should be a number followed by the unit it is expressed in.

COCCCN1CCC(CNC(=O)c2nc(C(C)C)n3ccccc23)CC1 5.2 L/kg

Go through the items and report each one's Vd.
1. CC(C)c1nc(C(=O)NC2CCN(C(C)C)CC2)c2ccccn12
2. CC(C)c1nc(C(=O)NC[C@@H]2[C@H]3CN(CC(C)(C)O)C[C@@H]23)c2ccccn12
3. CC(C)c1nc(C(=O)NC2CCN(CC3CC3)CC2)c2ccccn12
4. CC(C)c1nc(C(=O)NC[C@@H]2[C@H]3CN(C(C)C)C[C@@H]23)c2ccccn12
5. COCCCN1CCC(NC(=O)c2nc(C(C)C)n3ccccc23)CC1
6. CC(C)c1nc(C(=O)NC[C@@H]2[C@H]3CN(CC(C)(C)F)C[C@@H]23)c2ccccn12

1: 4.7 L/kg; 2: 3.8 L/kg; 3: 5.3 L/kg; 4: 7.6 L/kg; 5: 4.9 L/kg; 6: 4.9 L/kg

Count: 3. Required value per item: Vd.
1. CC(C)c1nc(C(=O)NC2CCN(CCF)CC2)c2ccccn12
2. COC(=O)N1CCC(CN2C[C@@H]3[C@@H](CNC(=O)c4nc(C(C)C)n5ccccc45)[C@@H]3C2)CC1
3. CC(C)c1nc(C(=O)NC2CCN(C3CCOCC3)CC2)c2ccccn12

1. 2.9 L/kg
2. 3.3 L/kg
3. 4.6 L/kg

---

Assay: Apparent permeability of the compound in human Caco2 cells
Format: ADME, cell-based
Conditions: Caco-2
Assay Endpoint: Papp (×10⁻⁶ cm/s)
Numbers only, in ×10⁻⁶ cm/s.

# get_value(readout='Papp', item= COCCCN1C[C@@H]2[C@@H](CNC(=O)c3nc(C(C)C)n4ccccc34)[C@@H]2C1 )
34.8

---

Assay: Oral bioavailability in Wistar rat at 10 mg/kg
Type: ADME, organism-based
Conditions: in vivo
Given measured bioavailability, output Satisfied if it is greater than or equal to 30% and Not satisfied if not.

Consider the following illustrative entries.
CC(C)c1nc(C(=O)NC[C@@H]2[C@H]3CN(C(C)C)C[C@@H]23)c2ccccn12 Not satisfied
CC(C)c1nc(C(=O)NC[C@@H]2[C@H]3CN(CC4CCOCC4)C[C@@H]23)c2ccccn12 Not satisfied
CC(C)c1nc(C(=O)NCC2CCN(CC3CCOCC3)CC2)c2ccccn12 Satisfied

Here is the next item to consider.
Decide: bioavailability of COCCCN1CCC(NC(=O)c2nc(C(C)C)n3ccccc23)CC1 >= 30%?
Satisfied

---

Answer each item with its documented Cmax.
Assay: Cmax in Wistar rat at 10 mg/kg, po and 5 mg/kg, iv
Assay type: ADME, organism-based
Settings: in vivo
Answers are plain numbers, in ng/mL.

Worked cases, Cmax given:
CC(C)c1nc(C(=O)NC2CCN(C3CCOCC3)CC2)c2ccccn12 1760
CC(C)c1nc(C(=O)NC2CCN(CC3(O)CCOCC3)CC2)c2ccccn12 434
CC(C)c1nc(C(=O)NC[C@@H]2[C@H]3CN(CC4CCOCC4)C[C@@H]23)c2ccccn12 120

Now, please, on to the next molecule.
Which measured Cmax value corresponds to COCCCN1CCC(CNC(=O)c2nc(C(C)C)n3ccccc23)CC1 ?
109

# credit: ChEMBL document CHEMBL3739407
